Provide the recorded GI50 for the entries that follow.
Tested on: TK-10
Assay: NCI tumour cell line growth inhibition, 48 h
Calls of active or inactive are those of the source. Rule as the data show it: active = GI50 up to about 1.1 µM and inactive = higher.

- Compound: "O=C(O)CCCC#CCCCC(=O)O"
  GI50: "> 100 µM (inactive)"

Would you be so kind as to report GI50 for each listed record?
1. CN1N=C(c2ccccc2)c2cc(Cl)ccc2N=C1N/N=C/c1ccc(N(C)C)cc1
2. C=CC[C@@]12CCC(=O)C=C1CCCC2=O
3. O=C(OC1CCC2OOC1O2)c1ccc([N+](=O)[O-])cc1 (stereo unspecified)
4. ClC1(c2ccccc2)c2ccc(Br)cc2-c2cc(Br)ccc21
5. O=C1C(Cl)C2(CC(/C=C/c3ccccc3)=NN2c2cccc(S(=O)(=O)O)c2)N1c1nc2ccccc2s1 (stereo unspecified)
6. Fc1ccc(/C(=N/Cc2ccccc2)N2CCOCC2)cc1

(A)
["> 100 µM (inactive)", "> 100 µM (inactive)", "> 100 µM (inactive)", "19 µM (inactive)", "16.9 µM (inactive)", "> 100 µM (inactive)"]

Would you be so kind as to report GI50 for each listed record?
1. N/C(=N\c1ccc(Cl)c(Cl)c1)c1ccccc1N
2. CC1=C/C(=C(/c2ccc(O)c(C)c2)c2ccccc2C(=O)O)C=CC1=O
3. COc1ccc2nc(-c3ccccn3)cc(O)c2c1
4. NC(=S)N/N=C/c1ncccc1N

(A)
1. 36.8 µM (inactive)
2. 17.3 µM (inactive)
3. 96.4 µM (inactive)
4. > 10 µM (inactive)

====

Test system: PC-3
Test: NCI tumour cell line growth inhibition, 48 h
Active and inactive are the calls of the source. No stated cut-off is given here; in the data, active = GI50 up to about 1.1 µM and inactive = higher.
Assign a class; possible classes are 1 for active, 0 for inactive

- Compound: "C[C@]12Cc3cnn(-c4ccc(F)cc4)c3NC1CC[C@@H]1C2CC[C@@]2(C)C1CC[C@@H]2O (stereo not given in full)"
  Class: 0
- Compound: "COc1cc(C2c3cc4c(cc3OC3(OC)COC(=O)C23)OCO4)cc(OC)c1OC(C)=O (stereo not given)"
  Class: 1

(Q) In this assay, the call recorded for O=S1(=O)OCCCOS(=O)(=O)C1(Br)Br was what?
(A) 0

(Q) In this assay, the call recorded for O=C(O)C1C2C=CC(O2)C1C(=O)NCc1ccncc1 (stereo not given) was what?
(A) 0

(Q) In this assay, the call recorded for C=C1C(C2(C)C=CC(=O)OC3(C)COC(=O)CC32)C(OC=O)C(OC(=O)C(O)C(C)CC)C2(C)C(c3ccoc3)CC(OC(C)=O)C12O (stereo not given) was what?
(A) 0

(Q) In this assay, the call recorded for C#CCCCCC#Cc1ccccc1C(=O)C=[N+]=[N-] was what?
(A) 0

(Q) In this assay, the call recorded for O=C(Cc1nccc2c1[nH]c1ccccc12)OC1C#CCSCC#C/C=C\1 (stereo not given) was what?
(A) 0

(Q) In this assay, the call recorded for C=CCOC(=O)Cn1ccc(=O)[nH]c1=O was what?
(A) 0

(Q) In this assay, the call recorded for Cc1cc(C)c(-c2no/c(=N\S(=O)(=O)c3ccc(Cl)cc3)o2)c(C)c1 was what?
(A) 0

(Q) In this assay, the call recorded for O=C(CN1c2ccccc2Sc2ccccc21)N1CCNCC1 was what?
(A) 0

(Q) In this assay, the call recorded for C[C@@H](CO)C1=CC(C#C[Si](C)(C)C)N(C(=O)Oc2ccccc2)c2ccccc21 (stereo not given in full) was what?
(A) 0

(Q) In this assay, the call recorded for CNC(=O)ON(C(C)=O)C(=O)NC [CARACEMIDE] was what?
(A) 0

(Q) In this assay, the call recorded for N#Cc1ccc(C2Oc3ccc(Cl)cc3C=C2[N+](=O)[O-])cc1 (stereo not given) was what?
(A) 0

(Q) In this assay, the call recorded for COc1ccc(CCN2COc3ccc4ccc(=O)oc4c3C2)cc1OC was what?
(A) 0

(Q) In this assay, the call recorded for CC(=O)c1cc(S(=O)(=O)c2ccc(O)c(C(C)=O)c2)ccc1O was what?
(A) 0

(Q) In this assay, the call recorded for O=C(CN(c1ccc(S(=O)(=O)O)cc1)c1ccc(S(=O)(=O)O)cc1)Nn1cnc2ccc(S(=O)(=O)N(c3ccc(S(=O)(=O)O)cc3)c3ccc(S(=O)(=O)O)cc3)cc2c1=O was what?
(A) 0

(Q) In this assay, the call recorded for O=[N+]([O-])c1ccc(Oc2c(Cl)cc(S(=O)(=O)N/C(=N\O)Nc3ccc(Cl)cc3)cc2Cl)c(Cl)c1 was what?
(A) 0

(Q) In this assay, the call recorded for N#CCN1c2ccccc2CCC1Cl (stereo not given) was what?
(A) 0

(Q) In this assay, the call recorded for C=C(C(=O)OC)[C@H]1CC/C(C)=C/CC/C(C)=C/CC[C@@]2(C)O[C@@H]2C1 was what?
(A) 0

(Q) In this assay, the call recorded for COc1cccc(N2C(=O)C3c4[nH]c5ccccc5c4C4CCCC4C3C2=O)c1 (stereo not given) was what?
(A) 0
